System: HS 578T breast
Assay: NCI tumour cell line growth inhibition, 48 h
Task for the reader: assign each of the following compounds its reported TGI.

These solved cases illustrate the format of a correct answer.
compound: OCc1c2c(cc3c1CC1(C3)Cc3cc4c(c(CO)c3C1)CCC4)CCC2
valueKind: TGI
obsValue: 36.9 µM

compound: C[C@@H]1O[C@@H](O[C@@H]2[C@@H](O)[C@H](OCCc3ccc(O)c(O)c3)O[C@H](COC(=O)/C=C/c3ccc(O)c(O)c3)[C@H]2O)[C@H](O)[C@H](O)[C@H]1O
valueKind: TGI
obsValue: > 100 µM

compound: COc1ccc(/C=C2\Sc3nnc(C)n3N=C2c2cc(F)c(Cl)cc2Cl)cc1OC
valueKind: TGI
obsValue: > 100 µM

compound: CC1=NC2(CCCCC2)N(Cl)C(=O)C1SC#N (stereo not given)
valueKind: TGI
obsValue: > 100 µM

compound: O=C(Nc1ccc(-n2cc(-c3ccncc3)c(-c3ccc(Cl)c(O)c3)n2)cc1)Nc1cc(C(F)(F)F)cc(C(F)(F)F)c1
valueKind: TGI
obsValue: 6.59 µM

compound: COc1ccc(C[C@H]2NC(=O)/C=C/C[C@@H]([C@H](C)[C@H]3O[C@@H]3c3ccccc3)OC(=O)[C@H](CC(C)C)OC(=O)[C@H](C)CNC2=O)cc1
valueKind: TGI
obsValue: > 6.66e-05 µM

Parameters: items (list). Returns: TGI for each item.
1. Cc1ccc(S(=O)(=O)NC(=O)NC(Cc2ccccc2)C(=O)O)cc1 (stereo not given)
2. OCC(O)C(O)C(O)C1SC(c2ccccc2)=NN1c1ccccc1 (stereo not given)
3. N#Cc1ccc(OC(=O)c2ccc(N=C(N)N)cc2)cc1
4. O=c1c(/C=C/c2c(O)ccc3ccccc23)nnc2sc(-c3cccc([N+](=O)[O-])c3)nn12
5. Cn1ccc2c(NCCN)c3c(c(NCCN)c21)C(=O)c1ccccc1C3=O
6. CCn1nc(-c2ccccc2)c2c1N(C)c1ccccc1-n1c(-c3ccccc3)nnc1-2
7. COC(=O)c1ccc(CCC2=CC(=O)C(Br)=CC2=O)cc1
8. c1cc2c(cc1C(N1CCNCC1)N1CCNCC1)OCO2

1: > 100 µM; 2: > 100 µM; 3: > 100 µM; 4: 56.1 µM; 5: 5.26 µM; 6: 52.4 µM; 7: 45 µM; 8: > 100 µM

Parameters: items (list). Returns: TGI for each item.
1. O=C(O)C(F)(F)C(F)(F)C(F)(F)C(F)(F)C(=O)O
2. N#CC1=C(N)NC(=S)NC12Nc1ccccc1O2 (stereo not given)

1. > 100 µM
2. 60.2 µM

Parameters: items (list). Returns: TGI for each item.
1. CCOC(=O)CN=C1Nc2ccccc2C(=O)N2CSCC12 (stereo not given)
2. N#Cc1ccc(/C=N/NC(=O)CSCC(=O)N/N=C/c2ccc(C#N)cc2)cc1
3. Nc1ccccc1/C=C\c1ccccc1
4. Cc1ccccc1C(=O)C#Cc1cn(C2CC(O)C(CO)O2)c(=O)[nH]c1=O (stereo not given)

["> 100 µM", "> 100 µM", "> 100 µM", "> 100 µM"]

====

System: OVCAR-8 ovarian
Test: NCI tumour cell line growth inhibition, 48 h; in the data active = GI50 below about 0.43 µM; inactive = the rest
Pick one and only one: active, inactive

compound: CCN(CC)CCOc1ccc(Nc2ncc3cc(-c4ccc(O)cc4)c(=O)n(C)c3n2)cc1
targetOfAssay: OVCAR-8 ovarian
label: inactive

What did this assay record as the result for "O=[N+]([O-])c1ccc(-c2nc(N(CCO)CCO)c3ccccc3n2)o1" ?
active

Next up: "CCOC(=O)Cc1csc(/N=C2\NC(=O)/C(=C3\C(=O)N(C)c4ccccc43)S2)n1"
inactive

Next up: "NCCCC(=O)Nc1ccncc1"
inactive

Next up: "O=C1/C(=C/c2ccc(O)c([N+](=O)[O-])c2)CCC/C1=C\c1ccc(O)c([N+](=O)[O-])c1"
inactive

Next up: "CCCCCCCCCNCCCCCCCCC"
inactive

Next up: C/C=C(\C)C(=O)N[C@H]1[C@@H](OC(C)=O)C[C@]2(C)C3CC[C@@]4(C)C(CC[C@@H]4C(C)N(C)C)C3CCC2[C@H]1O (some centres undefined)
inactive

Next up: "COc1ccc(/C=C2\CN(C(=O)C(Cl)Cl)C/C(=C\c3ccc(OC)c(OC)c3)C2=O)cc1OC"
active

Next up: N#CC1=C(N)OC2=C(COc3ccc(F)cc32)C1c1ccc(Cl)cc1 (centres undefined)
inactive

Next up: "COc1cc(Cl)cc(-c2nn(C(=O)NCCN3CCN(C)CC3)cc2-c2ccncc2)c1"
inactive

Next up: "CCCc1ccc(S(=O)(=O)N[C@H]2CC[C@H]3[C@@H]4CCc5cc(O)ccc5[C@H]4CC[C@]23C)cc1"
inactive

Next up: C=C1C(=O)O[C@@H]2C1C[C@@H](O)/C(C)=C/C/C=C(\C)CCC[C@H](C)[C@H]2OC(C)=O (some centres undefined)
inactive

Next up: "c1ccc2[nH]c(SSc3nc4ncncc4[nH]3)nc2c1"
inactive

Next up: "COc1ccc2nc(-c3ccccc3)cc(Nc3ccc(C(C)=O)cc3)c2c1"
inactive
